These entries and their values trace back to patent US9938261B2.

Target: kinase panel containing either 386 or 392 distinct kinases
Experiment: Kinase selectivity score S10 from competition binding panel
Conditions: 10 μM, panel of 386 or 392 distinct kinases
Observed property: Kinase specificity S(10)

Example molecules with recorded Kinase specificity S(10):
- Molecule: "N#Cc1ccn2c(Cc3ccc4nc(N[C@@H]5CCCC[C@H]5O)sc4c3)cnc2c1"
  Kinase specificity S(10): "A (A≤0.01)"
- Molecule: "Cc1cc(C)c2c(c1)ncn2Cc1ccc2nc(N[C@@H]3CCCC[C@H]3O)sc2c1"
  Kinase specificity S(10): "A (A≤0.01)"
- Molecule: "O=C(c1ccn2c(Cc3ccc4nc(N[C@@H]5CCCC[C@H]5O)sc4c3)cnc2c1)N1CCCC1"
  Kinase specificity S(10): "A (A≤0.01)"
- Molecule: "N#Cc1ccc2c(c1)ncn2Cc1ccc2nc(N[C@@H]3CCCC[C@H]3O)oc2c1"
  Kinase specificity S(10): "A (A≤0.01)"
- Molecule: "O[C@@H]1[C@H](O)CCC[C@H]1Nc1nc2ccc(Cn3cnc4cc(OC5COC5)ccc43)cc2s1"
  Kinase specificity S(10): "A (A≤0.01)"
- Molecule: "N#Cc1cc2ncn(Cc3ccc4nc(N[C@@H]5CCCC[C@H]5O)oc4c3)c2cc1Cl"
  Kinase specificity S(10): "A (A≤0.01)"

Asked: Entry under review: `O[C@@H]1CCCC[C@H]1Nc1nc2ccc(Cc3cnc4ccc(-n5cccn5)cn34)cc2s1` . Reported Kinase specificity S(10)?
Given back: A (A≤0.01)

Asked: Entry under review: `N#Cc1cnc2c(c1)ncn2Cc1ccc2nc(N[C@@H]3CCCC[C@H]3O)oc2c1` . Reported Kinase specificity S(10)?
Given back: B (0.01<B≤0.02)
